What follows is a record of Ki for UniProt P08253.
Answer format: numeric, nM implied, no suffix.

Consider the reported Ki for these molecules:
>>> value_observed("C[C@H](C(=O)NO)N1CC[C@@](C)(c2ccc(OCc3ccccc3[N+](=O)[O-])cc2)C1=O")
35
>>> value_observed("CC(C)Cc1ccc([C@]2(C)CCN([C@H](C)C(=O)NO)C2=O)cc1")
701

Please examine the following record next.
In: Requested read-out Ki, target or system UniProt P08253, entry `C[C@H](C(=O)NO)N1CC[C@@](C)(c2ccccc2)C1=O`
Out: 108

---

What follows is a record of Ki for 72 kDa type IV collagenase (Homo sapiens, UniProt P08253).

In: Give the measured Ki of `C[C@H](C(=O)NO)N1CC[C@@](C)(c2ccc(OCc3cc(C(F)(F)F)cc(C(F)(F)F)c3)cc2)C1=O` .
Out: > 3 µM

In: Give the measured Ki of `C[C@H](C(=O)NO)N1CC[C@@](C)(c2ccc(Oc3ccccc3)cc2)C1=O` .
Out: < 0.0028 µM

In: Give the measured Ki of `COc1cc(COc2ccc([C@]3(C)CCN([C@H](C)C(=O)NO)C3=O)cc2)cc(OC)c1` .
Out: > 3 µM
